Every entry's value here was drawn from patent US5382586A.

# Lookup of reported Time in box, dark (D) keyed by entry
# Test system: mice, abstinence syndrome induced by cocaine, diazepam, alcohol or nicotine
# test description: light box/dark box test: inhibition of the abstinence syndrome
# Assay type: in vivo, mouse
# Parameters: unit not given here
# details: 24 h after stopping alcohol (alone, or with the named product; Ex. 42 at 1 μg/kg p.o. twice per day)
Just the number, please, no unit after it.

Cc1nc(Cl)c(Cl)n1CCCCN1CCN(c2ncccn2)CC1.O=C(O)CC(O)(CC(=O)O)C(=O)O
26
CCO
84
O=C1CC2(CCCC2)CC(=O)N1CCCCN1CCN(c2ncccn2)CC1
62

Shifting focus to the compound that follows.
Could you tell me which Time in box, dark (D) is on file for O=C1c2ccccc2S(=O)(=O)N1CCCCN1CCN(c2ncccn2)CC1 ?
35

---

# Lookup of reported Latent period L-D keyed by entry
# Tested on: mice, abstinence syndrome induced by cocaine, diazepam, alcohol or nicotine
# test description: light box/dark box test: inhibition of the abstinence syndrome
# Type: in vivo, mouse
# Parameters: unit not given here
# details: 24 h after stopping diazepam (alone, or with the named product; Ex. 42 at 1 μg/kg p.o. twice per day)
Just the number, please, no unit after it.

CN1C(=O)CN=C(c2ccccc2)c2cc(Cl)ccc21
1.8

Could you tell me which Latent period L-D is on file for O=C1CC2(CCCC2)CC(=O)N1CCCCN1CCN(c2ncccn2)CC1 ?
2

Could you tell me which Latent period L-D is on file for O=C1c2ccccc2S(=O)(=O)N1CCCCN1CCN(c2ncccn2)CC1 ?
8

Could you tell me which Latent period L-D is on file for Cc1nc(Cl)c(Cl)n1CCCCN1CCN(c2ncccn2)CC1.O=C(O)CC(O)(CC(=O)O)C(=O)O ?
28

---

# Lookup of reported Activity within 5 min period, light box (L) keyed by entry
# Test system: mice, abstinence syndrome induced by cocaine, diazepam, alcohol or nicotine
# test description: light box/dark box test: inhibition of the abstinence syndrome
# Format: in vivo, mouse
# details: 24 h after stopping alcohol (alone, or with the named product; Ex. 42 at 1 μg/kg p.o. twice per day)
Just the number, please, no unit after it.

Reference set, count: 3
O=C1c2ccccc2S(=O)(=O)N1CCCCN1CCN(c2ncccn2)CC1
36
CCO
6
Cc1nc(Cl)c(Cl)n1CCCCN1CCN(c2ncccn2)CC1.O=C(O)CC(O)(CC(=O)O)C(=O)O
97

Shifting focus to the compound that follows.
Could you tell me which Activity within 5 min period, light box (L) is on file for O=C1CC2(CCCC2)CC(=O)N1CCCCN1CCN(c2ncccn2)CC1 ?
15

---

# Tested on: norepinephrine-induced death in rats
# test description: norepinephrine antagonism test in rats (antihypertensive activity)
# Assay type: in vivo, rat (male Wister)
# details: Rattus norvegicus, ip, 2 h, read-out: ED50 (norepinephrine antagonistic antihypertensive activity)
# Procedure: This activity is manifested by the protection of animals before death induced by an intravenous injection of norepinephrine, which produces a hypertensive attack in rats. Male Wister rats weighing 200 grammes are used in this test. The product to be studied is administered intraperitoneally and 1.25 mg/kg (i.v.) of norepinephrine are administered after 2 hours. The initial administration dose in these studies is 40 mg/kg (i.p.).
assay endpoint: ED50 (mg/kg)
Entry rule: numbers only, all in mg/kg.

Reference set, count: 2
COc1ccccc1N1CCN(CCCCn2c(C)nc(Cl)c2Cl)CC1
0.18
COc1cccc(N2CCN(CCCCn3cc(Cl)cn3)CC2)c1
8.9

Shifting focus to the molecule that follows.
Could you tell me which ED50 is on file for Clc1cccc(Cl)c1N=C1NCCN1 [Clonidine, reference compound] ?
1.58
